- System: HeLa
- protocol text: Cytotoxicity against human HeLa cells after 3 days by MTT assay
- Assay type: functional
- condition details: 72 h, read-out: ED50 (the source's name)
Reported EC50 is given for each of the following molecules.
Only the number, expressed in µg/mL, is required.

Sample answers from the record:
molecule: COc1cc(/C=C/C(=O)OC[C@H]2O[C@@](COC(=O)/C=C/c3ccc(O)cc3)(O[C@H]3O[C@H](CO)[C@@H](O)[C@H](O)[C@H]3O)[C@@H](OC(=O)/C=C/c3ccc(O)c(OC)c3)[C@@H]2OC(C)=O)ccc1O [SMILASIDE D]
attribute measured: EC50
test result: 7.3
--
molecule: COc1cc(/C=C/C(=O)OC[C@H]2O[C@@](COC(=O)/C=C/c3ccc(O)cc3)(O[C@H]3O[C@H](COC(C)=O)[C@@H](O)[C@H](O)[C@H]3OC(C)=O)[C@@H](OC(=O)/C=C/c3ccc(O)cc3)[C@@H]2O)ccc1O [SMILASIDE F]
attribute measured: EC50
test result: 8.3

## Input Which value of EC50 has been reported for COc1cc(/C=C/C(=O)OC[C@H]2O[C@@](CO)(O[C@H]3O[C@H](COC(C)=O)[C@@H](OC(C)=O)[C@H](O)[C@H]3O)[C@@H](OC(=O)/C=C/c3ccc(O)c(OC)c3)[C@@H]2O)ccc1O [SMILASIDE A] in the records?
## Output 8.9

* * *

Reported EC50 is given for each of the following molecules.
- protocol text: Cytotoxicity against human Medulloblastoma cells after 3 days by MTT assay
- Type: functional
- condition details: Medulloblastoma cell, 72 h, read-out: ED50 (the source's name)

Sample answers from the record:
molecule: COc1cc(/C=C/C(=O)OC[C@H]2O[C@@](COC(=O)/C=C/c3ccc(O)cc3)(O[C@H]3O[C@H](CO)[C@@H](O)[C@H](O)[C@H]3O)[C@@H](OC(=O)/C=C/c3ccc(O)c(OC)c3)[C@@H]2O)ccc1O [SMILASIDE C]
EC50: > 20 µg/mL
//
molecule: COc1cc(/C=C/C(=O)OC[C@H]2O[C@@](CO)(O[C@H]3O[C@H](CO)[C@@H](O)[C@H](O)[C@H]3OC(C)=O)[C@@H](OC(=O)/C=C/c3ccc(O)c(OC)c3)[C@@H]2O)ccc1O [SMILASIDE B]
EC50: 9.4 µg/mL

Next item in the queue.
## Input Which value of EC50 has been reported for COc1cc(/C=C/C(=O)OC[C@H]2O[C@@](COC(=O)/C=C/c3ccc(O)cc3)(O[C@H]3O[C@H](COC(C)=O)[C@@H](O)[C@H](O)[C@H]3OC(C)=O)[C@@H](OC(=O)/C=C/c3ccc(O)cc3)[C@@H]2O)ccc1O [SMILASIDE F] in the records?
## Output > 20 µg/mL

* * *

Reported EC50 is given for each of the following compounds.
- System: HeLa
- protocol text: Cytotoxicity against human HeLa cells after 3 days by MTT assay
- Assay type: functional
- condition details: 72 h, read-out: ED50 (the source's name)
Only the number, expressed in µg/mL, is required.

compound: COc1cccc2c1C(=O)c1c(O)c3c(c(O)c1C2=O)C[C@@](O)(C(=O)CO)C[C@@H]3O[C@H]1C[C@H](N)[C@H](O)[C@H](C)O1
value units: µg/mL
EC50: 0.1

Next item in the queue.
## Input Which value of EC50 has been reported for COc1cc(/C=C/C(=O)OC[C@H]2O[C@@](COC(=O)/C=C/c3ccc(O)cc3)(O[C@H]3O[C@H](COC(C)=O)[C@@H](O)[C@H](O)[C@H]3O)[C@@H](OC(=O)/C=C/c3ccc(O)c(OC)c3)[C@@H]2O)ccc1O [SMILASIDE E] in the records?
## Output 5.1

* * *

- System: DLD-1
- protocol text: Cytotoxicity against human DLD1 cells after 3 days by MTT assay
- Assay type: functional
- condition details: DLD-1, 72 h, read-out: ED50 (the source's name)
Reported EC50 is given for each of the following compounds.

Sample answers from the record:
compound: COc1cc(/C=C/C(=O)OC[C@H]2O[C@@](CO)(O[C@H]3O[C@H](COC(C)=O)[C@@H](OC(C)=O)[C@H](O)[C@H]3O)[C@@H](OC(=O)/C=C/c3ccc(O)c(OC)c3)[C@@H]2O)ccc1O [SMILASIDE A]
EC50: 11.6 µg/mL
//
compound: COc1cc(/C=C/C(=O)OC[C@H]2O[C@@](COC(=O)/C=C/c3ccc(O)cc3)(O[C@H]3O[C@H](COC(C)=O)[C@@H](O)[C@H](O)[C@H]3OC(C)=O)[C@@H](OC(=O)/C=C/c3ccc(O)cc3)[C@@H]2O)ccc1O [SMILASIDE F]
EC50: 5 µg/mL
//
compound: COc1cc(/C=C/C(=O)OC[C@H]2O[C@@](COC(=O)/C=C/c3ccc(O)cc3)(O[C@H]3O[C@H](CO)[C@@H](O)[C@H](O)[C@H]3O)[C@@H](OC(=O)/C=C/c3ccc(O)c(OC)c3)[C@@H]2OC(C)=O)ccc1O [SMILASIDE D]
EC50: 2.7 µg/mL

Next item in the queue.
## Input Which value of EC50 has been reported for COc1cc(/C=C/C(=O)OC[C@H]2O[C@@](COC(=O)/C=C/c3ccc(O)cc3)(O[C@H]3O[C@H](CO)[C@@H](O)[C@H](O)[C@H]3O)[C@@H](OC(=O)/C=C/c3ccc(O)c(OC)c3)[C@@H]2O)ccc1O [SMILASIDE C] in the records?
## Output > 20 µg/mL

* * *

- protocol text: Cytotoxicity against human Medulloblastoma cells after 3 days by MTT assay
- Assay type: functional
- condition details: Medulloblastoma cell, 72 h, read-out: ED50 (the source's name)
attribute measured: EC50 (µg/mL)
Only the number, expressed in µg/mL, is required.

Sample answers from the record:
molecule: COc1cc(/C=C/C(=O)OC[C@H]2O[C@@](COC(=O)/C=C/c3ccc(O)cc3)(O[C@H]3O[C@H](CO)[C@@H](O)[C@H](O)[C@H]3O)[C@@H](OC(=O)/C=C/c3ccc(O)c(OC)c3)[C@@H]2OC(C)=O)ccc1O [SMILASIDE D]
EC50, µg/mL: 11.9
//
molecule: COc1cc(/C=C/C(=O)OC[C@H]2O[C@@](CO)(O[C@H]3O[C@H](COC(C)=O)[C@@H](OC(C)=O)[C@H](O)[C@H]3O)[C@@H](OC(=O)/C=C/c3ccc(O)c(OC)c3)[C@@H]2O)ccc1O [SMILASIDE A]
EC50, µg/mL: 11.3
//
molecule: COc1cccc2c1C(=O)c1c(O)c3c(c(O)c1C2=O)C[C@@](O)(C(=O)CO)C[C@@H]3O[C@H]1C[C@H](N)[C@H](O)[C@H](C)O1 [DOXORUBICIN]
EC50, µg/mL: 0.1

Next item in the queue.
## Input Which value of EC50 has been reported for COc1cc(/C=C/C(=O)OC[C@H]2O[C@@](COC(=O)/C=C/c3ccc(O)cc3)(O[C@H]3O[C@H](COC(C)=O)[C@@H](O)[C@H](O)[C@H]3O)[C@@H](OC(=O)/C=C/c3ccc(O)c(OC)c3)[C@@H]2O)ccc1O [SMILASIDE E] in the records?
## Output 12.2

* * *

Reported EC50 is given for each of the following compounds.
- Tested on: DLD-1
- protocol text: Cytotoxicity against human DLD1 cells after 3 days by MTT assay
- Assay type: functional
- condition details: DLD-1, 72 h, read-out: ED50 (the source's name)
Only the number, expressed in µg/mL, is required.

compound: COc1cc(/C=C/C(=O)OC[C@H]2O[C@@](COC(=O)/C=C/c3ccc(O)cc3)(O[C@H]3O[C@H](COC(C)=O)[C@@H](O)[C@H](O)[C@H]3O)[C@@H](OC(=O)/C=C/c3ccc(O)c(OC)c3)[C@@H]2O)ccc1O [SMILASIDE E]
target or system: DLD-1
EC50, µg/mL: 4.5

## Input Which value of EC50 has been reported for "COc1cccc2c1C(=O)c1c(O)c3c(c(O)c1C2=O)C[C@@](O)(C(=O)CO)C[C@@H]3O[C@H]1C[C@H](N)[C@H](O)[C@H](C)O1" in the records?
## Output 0.1
